Biological target: human LPA1 (Homo sapiens)
Construct: the full-length cDNA for human LPA1 was obtained by PCR of the reverse transcription reaction
Sequence (Q92633 whole entry): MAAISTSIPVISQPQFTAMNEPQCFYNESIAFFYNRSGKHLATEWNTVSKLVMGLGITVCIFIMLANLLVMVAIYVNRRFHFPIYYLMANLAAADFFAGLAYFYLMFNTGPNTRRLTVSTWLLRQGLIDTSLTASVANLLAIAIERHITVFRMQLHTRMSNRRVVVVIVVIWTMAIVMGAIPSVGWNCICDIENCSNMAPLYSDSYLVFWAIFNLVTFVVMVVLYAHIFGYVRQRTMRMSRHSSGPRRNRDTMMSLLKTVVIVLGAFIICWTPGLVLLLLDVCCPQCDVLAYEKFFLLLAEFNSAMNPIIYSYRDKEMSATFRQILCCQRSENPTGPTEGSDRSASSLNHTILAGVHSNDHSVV
Assay: LPA1 calcium flux assay
Conditions: human LPA1 expressing CHO cells, stimulated with 10 nM LPA; read-out: HLPA1 Ca Flux IC50
Procedure: Establishment of a CHO Cell Line Stably Expressing Human LPA1 A 1.1 kb cDNA encoding the human LPA1 receptor was cloned from human lung. […] Human LPA1 or LPA3 expressing CHO cells are seeded at 20,000-45,000 cells per well in a 96-well poly-D-lysine coated plate one or two days before the assay. […] Cells are the stimulated by the addition of 10 nM LPA and intracellular Ca^2+ measured using the Flexstation 3 (Molecular Devices). IC50s are determined using Graphpad prism analysis of drug titration curves.
pIC50: −log10 of the molar value.
Quick list: pIC50 per entry.

Worked examples, 4 compounds total:
q: May I ask what pIC50 has been recorded for `Cc1noc(-c2ccc(-c3ccc(C4(C(=O)O)CC4)cc3)cc2)c1Cc1nnc(Cc2ccccc2)o1` ?
a: > 6.52

q: Requested read-out: pIC50. Entry: Cc1noc(-c2ccc(-c3ccc(C4(C(=O)O)CC4)cc3)cc2)c1CN1CC(c2ccccc2)CC1=O (stereo not shown)
a: > 6.52

q: Returns the measured pIC50 for the input compound. Input: Cc1noc(-c2ccc(-c3ccc(C4(C(=O)O)CC4)cc3)cc2)c1C(O)c1nnc(Cc2ccccc2)o1 (single isomer, unassigned) [Compound 1-35]
a: > 6.52

q: What value of pIC50 has been reported for the following compound? `Cc1noc(-c2ccc(-c3ccc(C4(C(=O)O)CC4)cc3)cc2)c1Nc1cccc(C(=O)NC2CC2)n1`
a: > 6.52

More entries:
q: What measured pIC50 goes with `Cc1noc(-c2ccc(-c3ccc(C4(C(=O)O)CC4)cc3)cc2)c1Nc1cccc(-c2c(Cl)cccc2Cl)n1` ?
a: > 6.52

q: Tell me the measured pIC50 of Cc1noc(-c2ccc(-c3ccc(C4(C(=O)O)CC4)cc3)cc2)c1C(O)c1cccc(-c2ccccc2)c1 (stereo not shown) , please.
a: > 6.52

q: Which pIC50 is listed for `Cc1noc(-c2ccc(-c3ccc(C4(C(=O)O)CC4)cc3)cc2)c1Nc1cccc(-c2ccccc2Cl)n1` ?
a: > 6.52
